Cited source: patent US20250145684A1

Study target: T1, HLA-B*08:01 (human)
T1 construct: MHC monomer first loaded with a UV-sensitive peptide that is cleaved by UV light and exchanged for the test peptide
Method: UV peptide exchange ELISA
Exercise: for every item that follows, state its recorded peptide exchange yield.

A selection of reference data follows.
FVRPKLVTI [FVRPKLVTI (SEQ ID NO: 8)] : 50 to 75%
HAIPHYVTM [HAIPHYVTM (SEQ ID NO: 153)] : 20 to 50%

Parameters: items (list). Returns: peptide exchange yield for each item.
1. LLKGKPRAL [LLKGKPRAL (SEQ ID NO: 9)]
2. FQTAHFYL [FQTAHFYL (SEQ ID NO: 146)]
3. HFHNRHVF [HFHNRHVF (SEQ ID NO: 128)]
4. YITRQFVQF [YITRQFVQF (SEQ ID NO: 84)]
5. SLLPFTLSF [SLLPFTLSF (SEQ ID NO: 123)]
6. ELILKHSL [ELILKHSL (SEQ ID NO: 52)]

-- reply
20 to 50%
50 to 75%
50 to 75%
20 to 50%
20 to 50%
50 to 75%

-- ask Let me know recorded peptide exchange yield for ILCGSRKMPL [ILCGSRKMPL (SEQ ID NO: 56)] , thanks.
-- reply 20 to 50%
